Measured values drawn from paper PMC10397247 for this set.

- assayed system: T1, 4H2729-bH
- T1 chain: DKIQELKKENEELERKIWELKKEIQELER
- measurement description: two-hybrid library CCNG1;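 note: natural log of median RNA to DNA barcode read ratio; higher means stronger binding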
measured attribute: interaction score
Lab note: write the figure by itself, no unit.

Sample records with interaction score:
{"binder": "DKIQELKKEIEELERKNWELKKEIQELKR [4H2618-bH]", "interaction score": 2}
{"binder": "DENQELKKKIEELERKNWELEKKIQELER [4H1845-bH]", "interaction score": 0.473}
{"binder": "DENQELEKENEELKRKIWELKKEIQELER [4H1257-bH]", "interaction score": 0.0373}
{"binder": "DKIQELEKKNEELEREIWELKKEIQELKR [4H2442-bH]", "interaction score": 1.77}
{"binder": "DKIQELKKEIEELKRKIWELKKENQELER [4H2667-bH]", "interaction score": 1.75}

What value of measured interaction score is listed for DKIQELKKENEELERKIWELKKEIQELER [4H2729-bH] ?
1.2

What value of measured interaction score is listed for DENQELKKKIEELERKIWELEKENQELKR [4H1828-bH] ?
-0.147

What value of measured interaction score is listed for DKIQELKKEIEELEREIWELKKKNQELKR [4H2576-bH] ?
1.93

What value of measured interaction score is listed for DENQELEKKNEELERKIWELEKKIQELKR [4H1446-bH] ?
0.679
